In this section, each of the variants is paired with its reported protein stability index.
B1: STK38L (parent)
chain: NWKETLVFPPEVPISEKAKDLILR

- Variants of: B1
- Protocol Notes: protein stability index of a GFP-peptide fusion (GPS, HEK-293T) (PSI 1-6); higher = more stable;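 note: lentivirally expressed fusions sorted by FACS into six bins by GFP to DsRed ratio, PSI derived from sequencing read proportions per bin multiplied by bin number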
- Test Settings: c terminus: a fixed tail appended
Outcome Measure: protein stability index

Residue Sequence	Numeric Result
NWKETLVFPPFVPISEKAKDLILR	1.92
NWKETLIFPPEVPISEKAKDLILR	3.09
NWKETLVFPPEVPISEMAKDLILR	2.85
NWKETLVAPPEVPISEKAKDLILR	4.08
NWKETLVFPPEVPISEKAKDWILR	2.58
NWKETLVFPPEVPISEKASDLILR	3.53
NWKETLVFPPEVPISEKAKSLILR	2.45
NWKETLVFPPEVPISEKKKDLILR	3.4
NWKETLVFPPEVPISEKAKDLILQ	2.83
NWKETLVFPFEVPISEKAKDLILR	1.8
NWKETLVFHPEVPISEKAKDLILR	2.57
